Biological target: RET(KD: 658-1114 G810R) (Homo sapiens, UniProt P07949, G810R)
Construct: 658-1114; expressed in transfected cells; host or cells: 293T.165 (293T cells, generated in-house)
Sequence (P07949 658-1114 G810R): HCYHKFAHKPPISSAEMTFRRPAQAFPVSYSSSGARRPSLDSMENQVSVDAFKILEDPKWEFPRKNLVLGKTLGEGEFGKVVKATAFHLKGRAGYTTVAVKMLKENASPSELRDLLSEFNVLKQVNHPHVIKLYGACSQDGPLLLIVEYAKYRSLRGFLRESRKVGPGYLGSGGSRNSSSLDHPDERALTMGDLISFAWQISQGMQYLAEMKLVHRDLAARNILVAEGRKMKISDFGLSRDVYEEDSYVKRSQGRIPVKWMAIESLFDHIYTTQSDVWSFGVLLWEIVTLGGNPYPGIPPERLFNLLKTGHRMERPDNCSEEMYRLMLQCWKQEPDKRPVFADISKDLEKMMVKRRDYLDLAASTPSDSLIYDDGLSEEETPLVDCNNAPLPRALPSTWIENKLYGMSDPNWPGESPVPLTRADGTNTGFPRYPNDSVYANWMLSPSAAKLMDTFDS
Assay: HiBiT-Degradation, RET G810R degradation assay (Nano-Glo HiBiT Lytic), 293T.165 cells
Type: cell-based
Details: 6.0 hours, half-maximal degradation concentration, read-out: 293T.165 RET(KD: 658-1114 G810R) 6.0 hours (DC50)
Description: Dulbecco's modified Eagle medium (DMEM) no-phenol red media and fetal bovine serum (FBS) were purchased from Gibco (Grand Island, NY, USA). […] RET wild-type (WT) and G810R degradation were assessed using the Nano-Glo® HiBiT Lytic assay (Promega, Medison, WI, USA). […] Luminescence signal was measured using an EnVision™ Multimode plate reader (Perkin Elmer, Santa Clara, CA, USA). […]
Catalogue of compounds with associated DC50

[
  {
    "compound": "CC(C)NC(=O)C1(C)CCN(c2ccc(-c3cc(-c4cnn([C@H]5CC[C@H](CCN6CCC(c7ccc(NC8CCC(=O)NC8=O)cc7F)CC6)CC5)c4)cn4ncc(C#N)c34)cn2)CC1 (stereo partly drawn)",
    "DC50": "< 50 nM"
  },
  {
    "compound": "N#Cc1cnn2cc(-c3ccc(N4CCN(C(=O)CN5CCC(c6ccc(NC7CCC(=O)NC7=O)cc6)CC5)CC4)cc3)cc(-c3ccc(N4CC5CC(C4)N5Cc4ccccc4)nc3)c12 (stereo not drawn)",
    "DC50": "< 100 nM"
  },
  {
    "compound": "N#Cc1cnn2cc(-c3cnn([C@H]4CC[C@H](CCN5CCC(c6ccc(NC7CCC(=O)NC7=O)cc6F)CC5)CC4)c3)cc(-c3ccc(N4CCN(C(=O)Cc5ccc(F)cn5)CC4)nc3)c12 (stereo partly drawn)",
    "DC50": "< 50 nM"
  },
  {
    "compound": "CCC1(C(=O)Nc2ccc(F)cc2)CCN(c2ccc(-c3nc(-c4cnn(C5CCN(C(=O)CC6(O)CCN(c7ccc(NC8CCC(=O)NC8=O)cc7F)CC6)CC5)c4)cn4ncc(C#N)c34)cn2)CC1 (stereo not drawn)",
    "DC50": "< 50 nM"
  },
  {
    "compound": "CCC1(C(=O)NC(C)(C)C)CCN(c2ccc(-c3nc(-c4cnn([C@H]5CC[C@H](N6CCN(c7c(F)cc(N[C@@H]8CCC(=O)NC8=O)cc7F)CC6)CC5)c4)cn4ncc(C#N)c34)cn2)CC1 (racemic)",
    "DC50": "< 50 nM"
  },
  {
    "compound": "N#Cc1cnn2cc(-c3cnn([C@H]4CC[C@H](N5CCN(c6ccc(N[C@@H]7CCC(=O)NC7=O)cc6F)CC5)CC4)c3)nc(-c3ccc(N4CC5COCC(C4)N5Cc4ccccn4)nc3)c12 (single isomer, unassigned)",
    "DC50": "< 50 nM"
  },
  {
    "compound": "CCC1(C(=O)NC2CCOCC2)CCN(c2ccc(-c3cc(-c4cnn([C@H]5CC[C@H](CCN6CCC(c7ccc(NC8CCC(=O)NC8=O)cc7F)CC6)CC5)c4)cn4ncc(C#N)c34)cn2)CC1 (stereo partly drawn)",
    "DC50": "< 50 nM"
  },
  {
    "compound": "Cn1nc(N2CCC(=O)NC2=O)c2ccc(C3CCN(CC(=O)N4CCN(c5ccc(-c6cc(-c7ccc(N8CCN(Cc9ccccn9)CC8)nc7)c7c(C#N)cnn7c6)cc5)CC4)CC3)cc21",
    "DC50": "< 100 nM"
  },
  {
    "compound": "CCC1(C(=O)NC(C)(C)C)CCN(c2ccc(-c3nc(-c4cnn([C@H]5CC[C@H](N6CCC(c7ccc(N[C@@H]8CCC(=O)NC8=O)cc7F)CC6)CC5)c4)cn4ncc(C#N)c34)cn2)CC1 (single isomer, unassigned)",
    "DC50": "< 50 nM"
  }
]
